# experimentSummary: NCI Yeast Anticancer Drug Screen. Data for the rad50EPP+ strain (AID 151);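 further: 0% = growth of vehicle-treated control cultures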
# conditionDescription: S. cerevisiae rad50 mutant strain, at 1.2 µM, active compounds read high
This is part of a sample that, as a whole, favours compounds with a hit. Of some 79,000 tested, about 15% had one in any assay.
outcomeMeasure: growth inhibition (%)
Respond with the bare value in %.

COc1cc2oc3ccccc3c(=O)c2cc1CSc1ccccc1N ... -5

What does the data say about its growth inhibition? Entry: Nc1ccc(S(=O)(=O)Nc2nc3c(c(=O)[nH]2)CCCC3)cc1 12

growth inhibition for COc1ccccc1/C=C\C(=O)C1COCN1 (centres undefined) ? 11

// growth inhibition lookup, key: CC(C)OC(=O)NNc1cccc(Cl)c1 6

Entry under review: O=C1c2ccccc2-c2cc3ccccc3c(=O)n21 . Reported growth inhibition? 41

I am curious: what growth inhibition value has been reported for CN(C)CC1=Nc2cccc3cccc(c23)N1 ? -2

Recorded growth inhibition for NC(CCCCCCCCCCCCC(N)C(=O)c1ccccc1)C(=O)c1ccccc1 (centres undefined) , please? -2

Any idea what its growth inhibition is? The compound is O=C1C(=C2CCCC2)CCC1CN1CCCCC1 (centres undefined) 28

Requested read-out: growth inhibition. Entry: COc1ccc(C(C)c2cc3c(cc2OCC(C)=O)OCO3)cc1 (centres undefined) -3

----------
# experimentSummary: NCI Yeast Anticancer Drug Screen. Data for the rad50 strain (AID 155);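 further: 0% = growth of vehicle-only cultures of the same strain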
# conditionDescription: S. cerevisiae rad50 strain growth inhibition; at 50.0 µM
The panel holds about 79,000 compounds, 15% with a hit somewhere; the sample as a whole holds those more often. Calls of active or inactive are those of the source. No stated cut-off is given here; in the data, active means growth inhibition above about 70%; inactive means the rest.
Use one of these outcomes when replying: 1 (yes) = active, 0 (no) = inactive

CC(=O)NC(c1nc2cc(C)c(C)cc2[nH]1)c1nc2cc(C)c(C)cc2[nH]1 ... 0 (no)

Entry COc1cc(C2C3=C(COC3=O)Oc3cc4c(cc32)OCO4)cc(OC)c1O (configuration not stated) : call = ? 1 (yes)

Hi team, can someone confirm the assay call for CC(=O)CCC1=C(C)C(=O)C(=O)C(C)=C1O ? 0 (no)

Which outcome was entered for the compound O=C(O)C(=Cc1ccc(-c2ccccc2)cc1)C(=O)O in this test? 0 (no)

Identify the outcome logged in this assay for the compound shown: O=C(O)c1c2ccc(Cl)cc2nc2[nH]c(=O)[nH]c(=O)c12 0 (no)

----------
# experimentSummary: NCI Yeast Anticancer Drug Screen. Data for the rad50 strain (AID 155);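 further: 0% = growth of vehicle-only cultures of the same strain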
# conditionDescription: S. cerevisiae rad50 strain growth inhibition; at 5.0 µM (retest, dose inferred, filed as 0.5); active compounds read high
# Description: Growth inhibition of yeast strains with defined genetic alterations is measured as a screen for potential anti-cancer activity. Selected strains with alterations in DNA damage repair or cell cycle control were exposed to compounds and growth inhibition was measured relative to vehicle treated controls. The strain used in this assay is rad50
Compounds without any hit were thinned out: in the full panel of roughly 79,000, 15% have a hit.
Measured growth inhibition, listed per entry for reference.
Note: unit % is implicit; provide only the numeric part.

COc1cc2oc3ccccc3c(=O)c2cc1CSc1ccccc1N ... 9
CC/C(=C(\c1ccccc1)c1ccc(OCC[N+](C)(C)C)cc1)c1ccccc1 ... 70
S=C1N(c2ccc(Cl)cc2)C2=C(N=Nc3ccccc3)C(=Nc3ccccc3S2)N1c1ccccn1 ... 41
Cc1cc(C)c(S(=O)(=O)c2ccc(Cl)cc2)c(C)c1 ... -7
Cc1ccc(Nc2n[nH]c(=S)s2)c(C)c1 ... 21

Suppose we examine the compound CCN(CC)C(=S)SC(=S)N(CC)CC ; what growth inhibition value has been reported? 10

Item CC(C)CCC[C@@H](C)[C@H]1CC[C@H]2[C@@H]3CC[C@H]4C[C@H](N)CC[C@]4(C)[C@H]3CC[C@]12C has what recorded growth inhibition? -19

What measured growth inhibition goes with COc1ccc2c3c1OC(C)C31CC(=O)CCC1CC2 (stereo unspecified) ? 13

What value of growth inhibition has been recorded for this entry: COc1ccccc1/C=C\C(=O)C1COCN1 (stereo unspecified) -141

Entry CC(C)=CCC/C(C)=C/CN1C(=O)C=CC1=O has what growth inhibition? 13

What measured growth inhibition goes with CCOP(=O)(OCC)/C(C#N)=C\c1cccc2ccccc12 ? 14
